tested on: JNK2; construct: gene MAPK9; conditions: concentration: 1 μM,replicates: in singlicate; n = 1;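 also: KINOMEscan kinase panel screen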
%Inh by entry:
State just the number; it will be interpreted in %.

These recorded examples may help you get a feel for the data.
> print(dat)
                                   compound  result.unit  meas.value
1  CC(C)Nc1cc(-c2ccc3c(N)n[nH]c3c2)nc(N)n1 [GSK2221681]            %          18
2  NC(=O)c1cc(-c2ccccc2)cc2c(C3CCNCC3)c[nH]c12 [GSK301362]            %          23
3  Cc1ccc2c(-c3ccncc3)c(-c3ccc(F)cc3)nn2c1.Cl [GW461484]            %        97.3
4  CNC(=O)c1ccccc1Sc1ccc2c(/C=C/c3ccccn3)n[nH]c2c1            %           6
5  O=C(NCCNc1ccnc(NCc2ccc(F)cc2)n1)c1cc2ccccc2s1 [GSK1379944]            %          24

Prompt: Endpoint output: %Inh of CN(C)CC(O)COc1ccc(Nc2nccc(-c3cnn4nc(N5CCOCC5)ccc34)n2)cc1 (stereo not drawn) [GW767488] . Value?
Completion: 96.8

Prompt: For the compound shown here, Cl.Oc1cc(-c2nc(-c3ccccc3)[nH]c2-c2ccncc2)ccc1Cl [SB-386023] , give the reported %Inh.
Completion: 63

Prompt: %Inh lookup needed for Cl.Cl.NC[C@H](Cc1ccc(C(F)(F)F)cc1)NC(=O)c1cc(Br)c(-c2ccnc3[nH]ccc23)s1 [GSK1487252] , thanks.
Completion: 11

Prompt: Could you tell me which %Inh is on file for Cl.Cl.NC[C@H](CC1CCCCC1)NC(=O)c1cc(Br)c(-c2ccnc3[nH]ccc23)s1 [GSK1581427] ?
Completion: 15

Prompt: May I ask what %Inh has been recorded for Cc1n[nH]c2ccc(-c3cc(OC[C@@H](N)Cc4ccccc4)cnc3-c3ccoc3)cc12.O=C(O)C(F)(F)F.O=C(O)C(F)(F)F [GSK507358] ?
Completion: 11

Prompt: // query %Inh value for entry Cl.Cl.Nc1nc(-c2ccc3c(N)n[nH]c3c2)cc(N2CCCC(NC(=O)c3ccccc3)C2)n1 (stereo not drawn) [GSK2286775]
Completion: 10

Prompt: What value of %Inh has been reported for the following compound? C[C@@H]1CCN(C(=O)CC#N)C[C@@H]1N(C)c1ncnc2[nH]ccc12
Completion: 0

Prompt: I would be grateful if you could share the reported %Inh for C[C@@H](Oc1cc(-c2cnn(C3CCNCC3)c2)cnc1N)c1c(Cl)ccc(F)c1Cl .
Completion: 19

Prompt: What does the data say about its %Inh? Entry: CN(C)CCOc1ccc(-c2cc(-c3c[nH]nc3-c3ccccn3)ccn2)cc1 [GW835314]
Completion: 57

Prompt: Requested read-out: %Inh. Entry: Nc1nc(Nc2ccccc2)cc(-c2ccc3c(N)n[nH]c3c2)n1 [GSK2225749]
Completion: 0

Prompt: Give its %Inh value. Item: Cc1ccc(-n2nc(C(C)(C)C)cc2NC(=O)Nc2ccc(OCCN3CCOCC3)c3ccccc23)cc1 [GW839464]
Completion: 98.9

Prompt: Entry under review: CCN(CC)CCOc1ccc(Nc2ncc3cc(-c4c(Cl)cccc4Cl)c(=O)n(C)c3n2)cc1 [SB-601273] . Reported %Inh?
Completion: 86

Prompt: Item under review: O=C(NCCCN1CCOC1=O)c1cnc(NCc2cc(Cl)ccc2Cl)nc1NC1CCCC1 . Reported %Inh?
Completion: 0
